System: Vero cells
Details: Vero cells, 10 μM; 1 = DMSO-treated infected cells
Where a name gives a salt, the structure may show the parent alone.
Mark TRUE only when PrestoBlue relative viability stays strictly below 0.6. Values equal to the cut-off are FALSE.

# count of solved cases: 2
[ask] Bench note: check whether CN(CCOc1ccc(CC2SC(=O)NC2=O)cc1)c1ccccn1 (centres unmarked) shows PrestoBlue relative viability below 0.6
[reply] FALSE

[ask] A record lists CCN(CC)Cc1cc(Nc2ccnc3cc(Cl)ccc23)ccc1O [Amodiaquine, Amodiaquine dihydrochloride dihydrate] . Is its PrestoBlue relative viability below 0.6?
[reply] FALSE

More entries:
[ask] Problem: For the compound C#C[C@]1(O)CC[C@H]2[C@@H]3CCC4=CCCC[C@@H]4[C@H]3C(=C)C[C@@]21CC , is PrestoBlue relative viability under 0.6?
[reply] FALSE

[ask] Please indicate whether the reported PrestoBlue relative viability of O=C(c1ccc(OCCN2CCCCC2)cc1)c1c(-c2ccc(O)cc2)sc2cc(O)ccc12 [Raloxifene HCl] is strictly below 0.6.
[reply] TRUE

[ask] Below 0.6 on PrestoBlue relative viability? Entry C=C1CC[C@H](O)C/C1=C/C=C1\CCC[C@]2(C)[C@@H]([C@H](C)CCCC(C)C)CC[C@@H]12
[reply] FALSE

---

System: Vero cells
Settings: Vero cells, 10 μM; 1 = DMSO-treated infected cells
This listing pairs compounds with measured PrestoBlue relative viability.
// response body must contain only the number

Reference set (8 entries):
[ask] Give the reported value of PrestoBlue relative viability for this record: Cc1[nH]c2ccccc2c1CCNCc1ccc(/C=C/C(=O)NO)cc1
[reply] 0.6021

[ask] Using the record for CC[C@@H](C(=O)[C@@H](C)[C@@H](O)[C@H](C)[C@@H]1O[C@@H]([C@@H](CC)C(=O)O)CC[C@@H]1C)[C@H]1O[C@]2(C=C[C@@H](O)[C@]3(CC[C@@](C)([C@H]4CC[C@](O)(CC)[C@H](C)O4)O3)O2)[C@H](C)C[C@@H]1C , state its measured PrestoBlue relative viability.
[reply] 0.6121

[ask] Name the recorded PrestoBlue relative viability of the compound listed here: Cl.Cl.Cl.O[C@@H](COc1cccc2ncccc12)CN1CCN([C@@H]2c3ccccc3[C@@H]3[C@H](c4ccccc42)C3(F)F)CC1 [LY335979 (Zosuquidar 3HCL), Zosuquidar 3HCL]
[reply] 0.5866

[ask] Specify reported PrestoBlue relative viability for the compound shown: COC(=O)C1=C(C)NC(C)=C(C(=O)OC(C)C)C1c1cccc2nonc12 (stereo not drawn)
[reply] 0.6155

[ask] Answer with reported PrestoBlue relative viability of CC[C@@H]([C@H](C)O)n1ncn(-c2ccc(N3CCN(c4ccc(OC[C@@H]5CO[C@@](Cn6cncn6)(c6ccc(F)cc6F)C5)cc4)CC3)cc2)c1=O
[reply] 0.7676

[ask] Give the measured PrestoBlue relative viability for NCCC(O)(P(=O)([O-])O)P(=O)([O-])O.[Na+].[Na+] [Pamidronate Disodium]
[reply] 0.5456

[ask] Tell us which PrestoBlue relative viability value is on record for CN1CCN(CCCN2c3ccccc3Sc3ccc(C(F)(F)F)cc32)CC1.Cl.Cl [Trifluoperazine 2HCl]
[reply] 0.6995

[ask] Please report PrestoBlue relative viability for the following compound: Cl.Cl.Fc1ccc(C(c2ccc(F)cc2)N2CCN(C/C=C/c3ccccc3)CC2)cc1 [Flunarizine 2HCl]
[reply] 2.629

Continuing:
[ask] Look up and report measured PrestoBlue relative viability for this entry: Br.Cc1ccc(Sc2ccccc2N2CCNCC2)c(C)c1
[reply] 0.509
